The reported numbers originate from the supplement of paper PMC10567573.

B1: PPFIA4 (parent)
chain: VMTLPSDLRKHRRKLLSPVSREEN

Variants of: B1
Procedure Text: protein stability index of a GFP-peptide fusion (GPS, HEK-293T) (PSI 1-6); higher = more stable;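 also: lentivirally expressed fusions sorted by FACS into six bins by GFP to DsRed ratio, PSI derived from sequencing read proportions per bin multiplied by bin number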
Condition Info: c terminus: a fixed tail appended
Cut-off 4 on protein stability index, inclusive. At or above means 1 (yes); below means 0 (no).

   sequence_change  group_label
0             V19W       0 (no)
1              T3P       0 (no)
2             V19R       0 (no)
3             R13Q      1 (yes)

Consider the record given below.
-- ask Please tell me: is the variant E22R at or over 4 in terms of protein stability index?
-- reply 0 (no)
